Taken from paper PMC13165411.

experiment: Cytotoxicity on A549 cell monolayers (resazurin reduction assay); format: cell-based; conditions: human, A549 cells (confluent monolayer), 0.1 to 1000 µM, 16 h exposure, read-out: Cell viability (% of untreated control)
Assay metric: viability at 16 h

>>> print(df.to_string())
                            smiles_notation       assay_metric  result
0  Cc1c(-c2ccnn2C)cc(C(=O)NCc2ccc(S(C)(=O)=O)cn2)c(=O)n1-c1cccc(C(F)(F)F)c1  viability at 16 h   ~100%

# evaluate next
Consider the compound CC(C)(C)C(=O)Oc1ccc(S(=O)(=O)Nc2ccccc2C(=O)NCC(=O)O)cc1 . State its measured viability at 16 h.
~100%
